Listing: % change@TL7@10 uM of selected compounds
Molecular target: hERG (human ether-a-go-go-related gene) potassium channel (Homo sapiens, UniProt Q12809)
Sequence (Q12809 whole entry): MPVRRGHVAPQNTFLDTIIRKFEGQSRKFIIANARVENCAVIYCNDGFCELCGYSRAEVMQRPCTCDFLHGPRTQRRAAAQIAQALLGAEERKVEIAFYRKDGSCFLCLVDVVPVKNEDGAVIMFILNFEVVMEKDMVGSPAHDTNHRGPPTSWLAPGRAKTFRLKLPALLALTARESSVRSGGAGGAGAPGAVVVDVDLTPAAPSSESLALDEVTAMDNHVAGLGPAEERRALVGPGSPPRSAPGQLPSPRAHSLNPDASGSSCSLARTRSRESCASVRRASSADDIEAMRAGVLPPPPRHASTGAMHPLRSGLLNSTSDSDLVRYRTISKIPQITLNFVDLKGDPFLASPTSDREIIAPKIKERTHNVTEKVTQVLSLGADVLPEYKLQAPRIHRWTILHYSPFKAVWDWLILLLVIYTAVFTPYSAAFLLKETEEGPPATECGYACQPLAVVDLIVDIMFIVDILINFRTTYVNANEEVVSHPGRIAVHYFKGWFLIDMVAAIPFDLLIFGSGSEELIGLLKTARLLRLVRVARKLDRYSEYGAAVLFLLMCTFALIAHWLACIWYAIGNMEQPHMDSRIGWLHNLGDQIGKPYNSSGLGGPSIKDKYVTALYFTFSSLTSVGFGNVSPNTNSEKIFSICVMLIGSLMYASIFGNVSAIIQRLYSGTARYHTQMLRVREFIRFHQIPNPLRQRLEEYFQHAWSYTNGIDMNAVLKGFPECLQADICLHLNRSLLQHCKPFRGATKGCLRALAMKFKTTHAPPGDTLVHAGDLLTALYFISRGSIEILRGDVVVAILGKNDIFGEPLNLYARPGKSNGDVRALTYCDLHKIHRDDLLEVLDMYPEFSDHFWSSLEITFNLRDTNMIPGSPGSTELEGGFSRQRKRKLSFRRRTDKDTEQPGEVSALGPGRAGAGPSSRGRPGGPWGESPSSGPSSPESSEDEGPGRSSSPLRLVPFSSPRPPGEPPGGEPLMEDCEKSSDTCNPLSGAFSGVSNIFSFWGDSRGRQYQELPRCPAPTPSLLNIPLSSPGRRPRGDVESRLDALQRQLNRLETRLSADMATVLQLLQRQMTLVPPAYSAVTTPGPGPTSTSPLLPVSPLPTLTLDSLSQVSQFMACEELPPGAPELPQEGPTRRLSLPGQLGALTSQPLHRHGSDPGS
Experiment: QPatch automated patch-clamp hERG activator 4-concentration EC50 assay
Settings: increase of hERG tail current amplitude at 7 second (TL7); 10 uM; hERG stably expressed in CHO cells
measurement-name: % change@TL7@10 uM (%)

{"compound": "COc1ccc(NCc2ccc3cc(C(=O)O)oc3c2)cc1C(F)(F)F [Example 117]", "tgt": "hERG (human ether-a-go-go-related gene) potassium channel (Homo sapiens, UniProt Q12809)", "result-unit": "%", "measurement": 28}
{"compound": "CC(C)Oc1ccc(NCc2ccc3cc(-c4nnn[nH]4)oc3c2Cl)cc1C(F)(F)F [Example 171]", "tgt": "hERG (human ether-a-go-go-related gene) potassium channel (Homo sapiens, UniProt Q12809)", "result-unit": "%", "measurement": 291}
{"compound": "Clc1cc(NCc2ccc3cc(-c4nn[nH]n4)oc3c2)cc(Cl)c1Cl [Example 19]", "tgt": "hERG (human ether-a-go-go-related gene) potassium channel (Homo sapiens, UniProt Q12809)", "result-unit": "%", "measurement": 394}
{"compound": "Fc1c(CNc2ccc(OCC(F)(F)F)c(C(F)(F)F)c2)ccc2cc(-c3nnn[nH]3)oc12 [Example 154]", "tgt": "hERG (human ether-a-go-go-related gene) potassium channel (Homo sapiens, UniProt Q12809)", "result-unit": "%", "measurement": 325}
{"compound": "Fc1cc(CNc2ccc(OCC(F)(F)F)c(C(F)(F)F)c2)cc2cc(-c3nnn[nH]3)oc12 [Example 147]", "tgt": "hERG (human ether-a-go-go-related gene) potassium channel (Homo sapiens, UniProt Q12809)", "result-unit": "%", "measurement": 151}
{"compound": "FC(F)(F)COc1ccc(NCc2ccc3cc(-c4nnn[nH]4)oc3c2Cl)cc1C(F)(F)F [Example 187]", "tgt": "hERG (human ether-a-go-go-related gene) potassium channel (Homo sapiens, UniProt Q12809)", "result-unit": "%", "measurement": 230}
{"compound": "Fc1cc2cc(-c3nnn[nH]3)oc2cc1CNc1cc(C(F)(F)F)c(Br)c(C(F)(F)F)c1 [Example 159]", "tgt": "hERG (human ether-a-go-go-related gene) potassium channel (Homo sapiens, UniProt Q12809)", "result-unit": "%", "measurement": 388}
{"compound": "O=C(O)c1cc2ccc(CNc3ccc(N4CCOCC4)c(Br)c3)cc2o1 [Example 98]", "tgt": "hERG (human ether-a-go-go-related gene) potassium channel (Homo sapiens, UniProt Q12809)", "result-unit": "%", "measurement": 158}

====

Target: hERG (human ether-a-go-go-related gene) potassium channel (Homo sapiens)
Assay: QPatch automated patch-clamp hERG activator 4-concentration EC50 assay
Details: increase of hERG tail current amplitude at 7 second (TL7); 10 uM; hERG stably expressed in CHO cells
Mark fulfilled for % change@TL7@10 uM under 200%, not fulfilled if at or over.

{"molecule": "CSc1cccc(NCc2ccc3cc(C(=O)O)oc3c2)c1 [Example 97]", "category": "fulfilled"}
{"molecule": "O=C(O)c1cc2ccc(CNc3cc(Br)c(Br)c(Br)c3)cc2o1 [Example 85]", "category": "not fulfilled"}
{"molecule": "O=C(O)c1cc2ccc(CNc3ccc4c(c3)OC(F)(F)O4)cc2o1 [Example 89]", "category": "not fulfilled"}
{"molecule": "Cc1cc(NCc2ccc3cc(-c4nn[nH]n4)oc3c2)ccc1OC(F)(F)F [Example 21]", "category": "not fulfilled"}
{"molecule": "Fc1cc2oc(-c3nnn[nH]3)cc2cc1CNc1cc(C(F)(F)F)c(Br)c(C(F)(F)F)c1 [Example 133]", "category": "not fulfilled"}
{"molecule": "O=C(O)c1cc2cc(Cl)c(CNc3ccc(OCC(F)(F)F)c(C(F)(F)F)c3)cc2o1 [Example 224]", "category": "not fulfilled"}
{"molecule": "O=C(O)c1cc2ccc(CNc3ccc(C(=O)C(F)(F)F)cc3)cc2o1 [Example 103]", "category": "fulfilled"}
{"molecule": "Fc1cc2oc(-c3nnn[nH]3)cc2cc1CNc1ccc(OC(F)(F)F)c(C(F)(F)F)c1 [Example 130]", "category": "not fulfilled"}
{"molecule": "CCCc1ccc(NCc2ccc3oc(-c4nnn[nH]4)cc3c2)cc1C [Example 80]", "category": "fulfilled"}
{"molecule": "Fc1cc2cc(-c3nnn[nH]3)oc2cc1CNc1ccc(F)c(C(F)(F)F)c1 [Example 176]", "category": "fulfilled"}
{"molecule": "FC1(F)Oc2ccc(NCc3ccc4cc(-c5nn[nH]n5)oc4c3)cc2C(F)(F)O1 [Example 219]", "category": "fulfilled"}
{"molecule": "CSc1cccc(NCc2ccc3cc(-c4nn[nH]n4)oc3c2)c1 [Example 28]", "category": "not fulfilled"}
{"molecule": "CCCc1cc(NCc2ccc3oc(-c4nnn[nH]4)cc3c2)ccc1Cl [Example 68]", "category": "not fulfilled"}
{"molecule": "FC(F)(F)Oc1ccc(NCc2ccc3c(C(F)(F)F)c(-c4nnn[nH]4)oc3c2)cc1C(F)(F)F [Example 38]", "category": "fulfilled"}
{"molecule": "FC(F)(F)Oc1ccc(NCc2ccc3oc(-c4nn[nH]n4)cc3c2)cc1Br [Example 149]", "category": "not fulfilled"}
{"molecule": "Fc1ccc(NCc2cc3oc(-c4nnn[nH]4)cc3cc2Cl)cc1CC(F)(F)F [Example 221]", "category": "fulfilled"}
{"molecule": "Cc1nsc2ccc(NCc3ccc4cc(-c5nn[nH]n5)oc4c3)cc12 [Example 209]", "category": "fulfilled"}
{"molecule": "FC(F)(F)c1ccc(NCc2ccc3cc(-c4nn[nH]n4)oc3c2)cc1C(F)(F)F [Example 52]", "category": "fulfilled"}
